Recorded endpoint: melting point

| Compound | melting point |
| --- | --- |
| CNC(=O)[C@@H]1CSCN1S(=O)(=O)c1ccc(Cl)c(COc2cccc3c(-n4ccnc4)cc(C)nc23)c1Cl | 120 °C |
| O=CC=Cc1cnc(-c2ccccc2)s1 | 104 °C |
| CS(=O)(=O)c1ccc(-c2cnn(Cc3ccccn3)c(=O)c2-c2ccc(F)cc2)cc1 | 182 to 184 °C |

Hi! Can you tell me melting point for each of these compounds?
1. CCN(CC)C(=O)c1c(-c2ccccc2)[nH]c2ccccc12
2. COP(C)(=O)C(O)[C@H](CC1CCCCC1)NC(=O)[C@H](CC(C)C)NC(=O)CCc1ccccc1 (stereo partly specified)
3. COc1cc(N2CCN(C)CC2)ccc1-c1cnn2c(N)c(-c3cccc(O)c3)cnc12
4. CC(=O)[Si](C)(C(C)(C)C)C(C)(C)C
5. COc1ccc(C2=NN(C3CCN(c4ncccn4)CC3)C(=O)[C@@H]3CC=CC[C@H]23)cc1OC

Result block:
["224 to 226 °C", "165 to 170 °C", "217 to 220 °C", "35 °C", "163 to 166 °C"]

Need melting point for each of these compounds.
1. CCc1nn(CCOC(N)=O)c(CC)c1Cc1cc(Cl)cc(Cl)c1
2. OC(c1ccccc1)c1ccc2c(c1)N1CCN=C1S2 (stereo unspecified)
3. Cn1ccnc1C(=O)c1[nH]c2ccc(Cl)cc2c1CC(=O)O
4. COc1ccc(C2(C#Cc3ccncc3)CCC(=O)CC2)cc1OC1CCCC1

Result block:
1. 145 to 147 °C
2. 175 °C
3. 230 to 233 °C
4. 88 to 89 °C

Give me melting point for each of these compounds, listed below.
1. CCCCON=C(C(=O)OCC)c1csc(N)n1
2. CC1CN(c2ccc(NC=C3C(=O)NC(=O)c4ccc(Br)cc43)cc2)CC(C)N1 (stereo unspecified)
3. NS(=O)(=O)c1cc(CCNC(=O)C=Cc2cccs2)ccc1OCC1CCCCO1 (stereo unspecified)
4. OCc1ccc2c(Br)cccc2c1
5. Cc1cc2c(cc1C)-n1ccnc1C=C(c1ccc(-n3c(C)nc4cnccc43)cc1)N2
6. COc1ccc(C=CC(=O)c2ccco2)c(OC)c1
7. C=CCC(C(=O)O)(c1ccccc1)c1ccccc1
8. Cn1nc(-c2ccccc2)c(CNc2ccccc2C(=O)O)c1Cl

Result block:
1. 126 to 128 °C
2. 229 to 230 °C
3. 106 °C
4. 76 to 77 °C
5. 193 to 195 °C
6. 57 to 59 °C
7. 134 to 137 °C
8. 192 to 193 °C

Required: melting point, one value per compound below.
1. COC1CCC2(C)C(=CCC3C2CCC2(C)C(C(C)=O)CCC32)C1 (stereo unspecified)
2. O=C1C=C(NC(=O)C(=O)c2cn(Cc3cccc(C(F)(F)F)c3)c3cc([N+](=O)[O-])ccc23)CO1
3. CCC1(CCCCCl)C(=O)Nc2c(C)cccc21 (stereo unspecified)
4. CC(NC(=O)C(N)Cc1ccccc1)C(N)=O (stereo unspecified)
5. N#Cc1ccc2c(c1)C(=O)C1(CC1)O2
6. COC(=O)C1=C(C)NC(C)=C(C(C)=O)C1c1ccccc1Cl (stereo unspecified)
7. CCNS(=O)(=O)c1ccc(N)c(C(=O)N2CCN(C)CC2)c1

Result block:
1: 123 to 124 °C; 2: 279 to 281 °C; 3: 112 to 113 °C; 4: 95 to 97 °C; 5: 148 to 149 °C; 6: 183 to 184 °C; 7: 175 to 177 °C

Lab note: each compound below needs its melting point filled in.
1. COc1cccc(-n2c(N3CCNCC3)c(C(=O)N3CCN(C)CC3)c3ccccc32)c1
2. COc1ccc(CCN)cc1OCCC(c1ccccc1)(c1ccccc1)c1ccccc1
3. CCCCNN1C=c2cc(-c3c(Cl)cccc3Cl)c(=O)n(C)c2=NC1
4. O=C1c2ccccc2CN1CCN1CCC(Cc2c[nH]c3ccc(F)cc23)CC1
5. NC(=O)c1sc(Oc2ccc3c(c2)OCO3)c2c1CCc1cnoc1-2
6. COc1cc(N)c(Cl)cc1C(=O)NCC1CCN(CCCCCOc2cccc3ccccc23)CC1
7. Cc1ccc(-c2coc(-c3ccc4c(c3)C(C)(C)CCC4(C)C)c2)cc1
8. Oc1ccccc1-c1ccc2nonc2c1

Result block:
1: 228 to 230 °C; 2: 111 to 112 °C; 3: 184 to 186 °C; 4: 175 °C; 5: 167 to 169 °C; 6: 91 to 93 °C; 7: 155 to 157 °C; 8: 166 to 169 °C

// batch mode: one melting point value per listed entry
1. N#CC1(c2ccc(OC(F)F)c(OCC3CC3)c2)CCC(=C2SCCCS2)CC1 (stereo unspecified)
2. COc1ccc(C(=O)NCCCCCCNC(=O)c2ccc(OC)cc2)cc1
3. NS(=O)(=O)OCCOc1ccc(OCc2ccccc2)cc1
4. CC(C)OCc1cnc2c([N+](=O)[O-])cccc2c1Cl
5. O=C(Nc1ccc2c(c1)CCN(Cc1ccccc1)C2)c1ccccc1-c1ccc(C(F)(F)F)cc1
6. CC(C)(C)C(=O)Oc1n[nH]c(=O)c2nc3cc(Cl)ccc3c(O)c12

Result block:
1: 84 to 85 °C; 2: 177 to 178 °C; 3: 125 to 128 °C; 4: 83 to 86 °C; 5: 230 to 232 °C; 6: 352 to 357 °C
